# experimental system: Aldo-keto reductase family 1 member B1 (Rattus norvegicus)
# experiment notes: Inhibition of aldose reductase from rat lens. Value ranges from 0.1 - 7
readout kind: pIC50
// field semantics: pIC50 = negative decimal log of concentration (mol/L)

Please fill in: pIC50 reported for COc1ccc(N(CC(=O)O)C(=O)c2ccccc2)cc1 = 6.02

----------
# experimental system: Aldo-keto reductase family 1 member B1 (Rattus norvegicus)
# experiment notes: Inhibition of aldose reductase from rat lens. Value ranges from 7 - 130
readout kind: IC50 (µM)
// units = µM; emit number, no label

Please fill in: IC50 reported for COc1ccc(N(CC(=O)O)C(C)=O)cc1 = 80

----------
# experimental system: Aldo-keto reductase family 1 member B1 (Rattus norvegicus)
# experiment notes: Inhibition of aldose reductase from rat lens. Value ranges from 10 - 130
readout kind: pIC50
// field semantics: pIC50 = negative decimal log of concentration (mol/L)

Please fill in: pIC50 reported for CC(=O)N(CC(=O)O)c1ccc(O)cc1 = 4.47
